pKi: −log10 of the molar value.
Listing of pKi toward Carbonic anhydrase 12 (Homo sapiens, UniProt O43570), each taken from a published source.

| compound | sign.qualifier | pKi |
| --- | --- | --- |
| N#Cc1ccc(NC(=O)Nc2ccc(S(N)(=O)=O)cc2)cc1 | = | 8.19 |
| CCCCC(=O)OC[C@H]1O[C@@H](n2cc(-c3ccc(S(N)(=O)=O)cc3)nn2)[C@H](OC(=O)CCCC)[C@@H](OC(=O)CCCC)[C@H]1OC(=O)CCCC | = | 7.51 |
| NCCNCCCNCCN | = | 4.17 |
| CCCCc1ccc(NC(=O)Nc2ccc(S(N)(=O)=O)cc2)cc1 | = | 7.55 |
| NS(=O)(=O)c1ccc(-c2ccc3[nH]ccc3c2)cc1 | = | 7.19 |
| Nc1nc(-c2ccc(OCCNC(=O)c3ccc(S(N)(=O)=O)cc3)cc2)cn2c(=O)n(-c3ccccc3)nc12 | = | 6.28 |
| NCCNC(=O)c1ncc(-c2ccc(S(N)(=O)=O)cc2)o1 | = | 7.05 |
| COc1ccc(S(=O)(=O)N2C[C@@H](NS(=O)(=O)c3ccc(-c4ccccc4)cc3)C[C@@H]2C(=O)O)cc1 | = | 5.04 |
| Cc1ccccc1-c1ccc(S(N)(=O)=O)cc1 | = | 7.33 |
| NS(=O)(=O)c1ccc(CCNCc2ccc([N+](=O)[O-])cc2)cc1 | = | 7.11 |
| COC(=O)c1ccc(O)cc1 | = | 6.09 |
| CC(=O)OC[C@H]1O[C@@H](NC(=S)NCc2ccc(S(N)(=O)=O)cc2)[C@H](OC(C)=O)[C@@H](OC(C)=O)[C@H]1OC(C)=O | = | 7.00 |
| O=C(Oc1ccc2ccc(=O)oc2c1)c1ccccc1 | = | 6.09 |
| CCCN(CCC)S(=O)(=O)NC(=O)OC(C)(C)C | = | 6.04 |
| Cc1nc(-c2csc(S(N)(=O)=O)c2)no1 | = | 8.00 |
| Cc1nn(C)c2nnc(Nc3ccc(S(=O)(=O)N4CCCC4)cc3)nc12 | = | 8.09 |
| Nc1nc(-c2ccc(O)cc2)cn2c(=O)n(-c3ccccc3)nc12 | < | 4.00 |
| Nc1nc(-c2ccc(NC(=O)c3ccc(O)cc3)cc2)cn2c(=O)n(-c3ccccc3)nc12 | = | 5.36 |
| CC(=O)O[C@H]1[C@@H](OC(C)=O)[C@@H](CO)O[C@@H]([Se]c2ccc(S(N)(=O)=O)cc2)[C@@H]1OC(C)=O | = | 7.37 |
| O=C(NO)[C@H]1C[C@@H](NS(=O)(=O)c2ccc(-c3ccccc3)cc2)CN1S(=O)(=O)c1ccc(Cl)c(Cl)c1 | = | 4.17 |
| CC(C)c1ccc(NC(=O)Nc2ccc(S(N)(=O)=O)cc2)cc1 | = | 7.30 |
| Nc1ccc(-c2ccc(S(N)(=O)=O)cc2)cc1 | = | 8.11 |
| CC(=O)Nc1ccc(S(=O)(=O)NCC(C)F)cc1 (stereo not given) | = | 5.96 |
| Cc1nn(C)c2nnc(Nc3ccccc3)nc12 | = | 8.05 |
| CCOc1ccc(S(=O)(=O)N2CCNCC2)cc1-c1nnc2c(n1)c(C)nn2-c1ccc(Cl)cc1 | = | 7.03 |
| COc1cc(S(N)(=O)=O)ccc1-c1noc(-c2cccnc2)n1 | = | 7.77 |
| Nc1nc(-c2ccccc2O)cn2c(=O)n(-c3ccccc3)nc12 | < | 4.00 |
| CC(=O)Oc1ccc2c(c1)OS(=O)(=O)C=C2 | < | 5.00 |
| Cc1nn(C)c2nnc(S(C)(=O)=O)nc12 | = | 8.18 |
| CC(=O)O[C@H]1[C@@H](OC(C)=O)[C@@H](CO)O[C@@H]([Se]c2ccc(S(N)(=O)=O)c(N)c2)[C@@H]1OC(C)=O | < | 5.00 |
| O=S(=O)(NC1C=C[C@H](O)[C@@H](CO)O1)c1ccc(O)cc1 (stereo not given in full) | < | 4.30 |
| NNc1ccc(S(N)(=O)=O)cc1 | = | 7.96 |
| Cc1ccc(-c2cc(C(F)(F)F)nn2-c2ccc(S(N)(=O)=O)cc2)cc1 | = | 7.74 |
| CC(C)NC(=O)Nc1ccc(S(N)(=O)=O)cc1 | = | 6.23 |
| COc1ccc(NC(=O)c2ccc3c(c2)C(=O)N(Cc2ccccc2)C3=O)c(C(=O)O)c1 | < | 4.00 |
| CS(=O)(=O)Oc1ccc2c(c1)OS(=O)(=O)C=C2 | < | 5.00 |
| CC(=O)OC[C@H]1O[C@@H](O[C@H]2[C@H](OC(C)=O)[C@@H](OC(C)=O)[C@H](NC(=S)NCc3ccc(S(N)(=O)=O)cc3)O[C@@H]2COC(C)=O)[C@H](OC(C)=O)[C@@H](OC(C)=O)[C@H]1OC(C)=O | = | 8.13 |
| Nc1ccc(S(=O)(=O)NCCc2ccc(S(N)(=O)=O)cc2)cc1 | = | 8.35 |
| NS(=O)(=O)c1ccc2nc(-n3cc(C=O)c(-c4ccc(F)cc4)n3)sc2c1 | < | 5.00 |
| NS(=O)(=O)c1ccc(CCN(Cc2ccccc2)C(=O)CN(Cc2ccccc2)Cc2ccccc2)cc1 | = | 7.01 |

---

A compilation of Ki values for Carbonic anhydrase 12 (Homo sapiens, UniProt O43570) from the published literature.

| molecule | units | sign.qualifier | Ki |
| --- | --- | --- | --- |
| COC(=O)C(CC(C)C)NC(=O)Nc1cccc(S(N)(=O)=O)c1 (configuration not stated) | µM | = | 0.589 |
| O=Cc1cc([N+](=O)[O-])ccc1OCc1cn(CCCOc2ccc3ccc(=O)oc3c2)nn1 | µM | > | 10 |
| CNc1ccc2oc(=O)c3c(C)nn(-c4ccccc4)c3c2c1 | µM | = | 0.737 |
| CNC(=O)CN1C(=O)c2ccccc2S1(=O)=O | µM | = | 0.0284 |
| NS(=O)(=O)c1ccc(-c2cnc3ccccc3c2)cc1 | µM | = | 0.76 |
| NS(=O)(=O)c1ccc(CC/N=C\c2ccccc2O)cc1 | µM | = | 0.0468 |
| O=C(O)c1ccccc1Nc1ccccc1 | µM | = | 0.05 |
| CCCC(CCC)CN(C(=O)OC(C)(C)C)S(=O)(=O)NCCC(=O)OC | µM | = | 65.4 |
| NS(=O)(=O)c1ccc(-c2ccc3ccccc3c2)cc1 | µM | > | 10 |
| N#CCCN(CCc1ccccc1)CC(=O)N(CCC#N)CCc1ccc(S(N)(=O)=O)cc1 | µM | = | 0.0089 |
| NS(=O)(=O)c1ccc(-c2cccc(C=O)c2)cc1 | µM | = | 0.00058 |
| CCCCNS(=O)(=O)NCCCC | µM | = | 0.69 |
| O=S(=O)(NCc1ccccc1)NCc1ccccc1 | µM | = | 81.5 |
| CCN(CC(=O)N(CCc1ccc(S(N)(=O)=O)cc1)Cc1ccccc1)Cc1ccccc1 | µM | = | 0.0826 |
| CC(C)CSc1cc2c(cc1S(N)(=O)=O)S(=O)(=O)NCN2 | µM | = | 1 |
| CC(=O)OC[C@H]1O[C@@H](NS(=O)(=O)c2ccc(O)cc2)C=C[C@H]1OC(C)=O | µM | > | 50 |
| Cc1nn(-c2ccccc2)c2c1c(=O)oc1ccc([N+](=O)[O-])cc12 | µM | > | 10 |
| NS(=O)(=O)c1ccc(NC(=O)CN2C(=O)NC3(CCCCC3)C2=O)cc1 | µM | = | 0.0466 |
| NS(=O)(=O)c1cc(C(=O)NCc2ccccc2)c(Cl)cc1S | µM | = | 0.0356 |
| Cc1nn(C)c2nnc(Nc3ccc(S(=O)(=O)N4CCN(C)CC4)cc3)nc12 | µM | = | 0.0053 |
| NS(=O)(=O)c1ccc2c(c1)C(=O)C(=O)N2Cc1cccc(C(F)(F)F)c1 | µM | > | 10 |
| CCCN(CCC)S(=O)(=O)N(CCC)CCC | µM | > | 200 |

---

The entries below pair compounds with log10 of Ki values for Carbonic anhydrase 12 (Homo sapiens), as found in several publications.
quantity: log10 of Ki (log10 of the value in nM)

| compound | log10 of Ki |
| --- | --- |
| NS(=O)(=O)c1ccc(Nc2nc(Cl)nc(NC(CO)C(=O)O)n2)cc1 (racemic) | 0.93 |
| NC(=O)c1ccc(-c2ccc(S(N)(=O)=O)cc2)cc1 | 0.92 |
| CC(=O)N1N=C(c2ccc([N+](=O)[O-])cc2)CC1c1cccc(OS(N)(=O)=O)c1 (stereo not drawn) | 1.31 |
| Cc1nn(-c2ccccc2)c2c1c(=O)oc1cc(Cl)ccc12 | 2.91 |
| Cc1nn(C)c2nnc(Nc3ccc(S(=O)(=O)N4CCCCC4)cc3)nc12 | 0.79 |
| NS(=O)(=O)c1ccc(OCc2ccc(F)cc2)cc1 | 0.90 |
| CCOc1ccc(S(=O)(=O)N2CCNCC2)cc1-c1nnc2c(n1)c(C)nn2C | 2.79 |
| NS(=O)(=O)c1ccc(NC(=O)C23CC4CC(CC(C4)C2)C3)cc1 | 0.85 |
| COc1ccc(CNCCc2ccc(S(N)(=O)=O)cc2)cc1 | 1.58 |
| NCCCCCN | 2.65 |
| Nc1nc(-c2ccc(NC(=O)CCNCc3ccc(S(N)(=O)=O)cc3)cc2)cn2c(=O)n(-c3ccccc3)nc12 | 1.62 |
| CC(=O)N1N=C(c2ccc(Cl)cc2Cl)CC1c1cccc(OS(N)(=O)=O)c1 (stereo not drawn) | 1.49 |
| CCOc1ccc(S(=O)(=O)N(CC)CC)cc1-c1nnc2c(n1)c(C)nn2C | 2.45 |
| CCOc1ccc(S(=O)(=O)NC[C@H](C)O)cc1-c1nnc2c(n1)c(C)nn2-c1ccc(C)cc1 | 1.92 |
| O=C(CN1C(=O)c2ccccc2S1(=O)=O)c1cccc([N+](=O)[O-])c1 | 3.30 |
| NS(=O)(=O)c1ccc(-c2ccc(C(O)c3ccc(C(=O)O)cc3)cc2)cc1 (stereo not drawn) | 1.97 |
| NS(=O)(=O)c1nnc(NS(=O)(=O)c2ccc(C(=O)OCCCCO[N+](=O)[O-])cc2)s1 | 1.49 |
| O=C1c2ccccc2S(=O)(=O)N1Cc1ccc(Cl)c(Cl)c1 | 3.44 |
| NS(=O)(=O)c1ccc(CO)cc1 | 2.34 |
| CC(=O)c1cc2ccc(Cl)cc2oc1=O | 3.66 |
| NS(=O)(=O)c1ccc(NC(=O)Nc2ccc(I)cc2)cc1 | 0.63 |
| NS(=O)(=O)c1ccc(CNS(=O)(=O)[C@@H]2O[C@H](CO)[C@@H](O[C@@H]3O[C@H](CO)[C@H](O)[C@H](O)[C@H]3O)[C@H](O)[C@H]2O)cc1 | 0.95 |
| CC(=O)OC[C@H]1O[C@@H](O[C@H]2[C@H](OC(C)=O)[C@@H](OC(C)=O)[C@H](S(=O)(=O)NCc3ccc(S(N)(=O)=O)cc3)O[C@@H]2COC(C)=O)[C@H](OC(C)=O)[C@@H](OC(C)=O)[C@H]1OC(C)=O | 1.02 |
| Cc1cn(-c2cc(NC(=O)c3ccc(C)c(Nc4nccc(-c5cccnc5)n4)c3)cc(C(F)(F)F)c2)cn1 | 2.48 |
| NS(=O)(=O)c1ccc(-c2ccc(Cc3ccc([N+](=O)[O-])cc3)cc2)cc1 | 0.97 |
| NS(=O)(=O)c1ccc(CCNCc2ccc(F)cc2)cc1 | 1.78 |
| Cc1cc(S(N)(=O)=O)c(S(=O)(=O)C(C)C(=O)O)cc1Cl (stereo not drawn) | 3.48 |
| CCCCCN(CCCCC)CC(=O)N(CCc1ccc(S(N)(=O)=O)cc1)Cc1ccccc1 | 1.84 |
| NS(=O)(=O)c1ccc(CCN(Cc2ccccc2)C(=O)CCN(Cc2ccccc2)Cc2ccccc2)cc1 | 2.48 |
| CC(=O)c1c(O)c2cc([N+](=O)[O-])ccc2oc1=O | 2.55 |
| COc1cc2ccc(=O)oc2c(OC)c1OC | 4.26 |
| CC(=O)OC[C@H]1O[C@@H]([Se]c2ccc(NC(=O)c3ccc(S(N)(=O)=O)cc3)cc2)[C@H](OC(C)=O)[C@@H](OC(C)=O)[C@@H]1OC(C)=O | 0.97 |
| CC(=O)N1N=C(c2ccc(OS(N)(=O)=O)cc2)CC1c1cccc2ccccc12 (stereo not drawn) | 1.75 |
